Test system: Human papillomavirus type 1a E7 protein (residues 1-88)
Procedure text: HPV1a E7 small-molecule binders, primary screen, biochemical, small-molecule microarray, residues 1-88, 635 nm (AID 1129)
Test conditions: small-molecule microarray binding, fluorescence 635 nm; higher = more signal
Hi there, I'd appreciate the recorded composite z-score for every entry that follows.

Result for COc1ccc(C(O)C2C=CC3C(=O)N(C)C(=O)C3N2N(c2ccccc2)c2ccccc2)c2ccccc12 (configuration not stated) , tested on Human papillomavirus type 1a E7 protein (residues 1-88), composite z-score: -0.172

Result for CC1CC/C=C\[C@H]2OC34C=CCN(Cc5ccccc5)C(=O)[C@H]3N(C(C)CO)C(=O)[C@@H]4C2C(=O)O1 (some centres not stated) , tested on Human papillomavirus type 1a E7 protein (residues 1-88), composite z-score: -0.922

Result for O=C1[C@H]2C=C(Br)[C@H](C[C@@H]2OCCCCCCO)[C@@]12CO2 , tested on Human papillomavirus type 1a E7 protein (residues 1-88), composite z-score: -1.57

Result for CCCCCCCCCCC(O)C1C=CC2C(=O)NC(=O)C2N1Nc1ccc(Cl)cc1Cl (configuration not stated) , tested on Human papillomavirus type 1a E7 protein (residues 1-88), composite z-score: 0.186

Result for Cc1ccc(S[C@]2(C(=O)NCC(C)C)CC(=O)N(Cc3cc(C(F)(F)F)cc(C(F)(F)F)c3)[C@@H]2c2ccc(CO)cc2)cc1 , tested on Human papillomavirus type 1a E7 protein (residues 1-88), composite z-score: -0.8

Result for C=CCOC(=O)[C@H]1[C@@H]2C(=O)O[C@@H](c3ccccc3)[C@@H](c3ccccc3)N2[C@@H](c2ccc(OCCOC(=O)[C@H]3C[C@H]4C(=O)N[C@@H](CCCCN(C)C)C(=O)N4[C@H]3c3cccc(OCCO)c3)cc2)[C@]12C(=O)Nc1ccc(I)cc12 , tested on Human papillomavirus type 1a E7 protein (residues 1-88), composite z-score: 1.18

Result for O=C1N(CCS(=O)(=O)c2ccccc2)c2ccccc2[C@@H]2OC(c3ccc(OCCCO)cc3)=N[C@]12Cc1ccccc1 , tested on Human papillomavirus type 1a E7 protein (residues 1-88), composite z-score: 1.19
